Property: Kd; scope: individual binders
Target: T1, GST-Abl2 SH2 domain (human, UniProt P42684 173-263)
T1 construct: SH2 domain of Abl2; source: E. coli BL21, purified (glutathione sepharose, NAP-10)
T1 sequence (looked up): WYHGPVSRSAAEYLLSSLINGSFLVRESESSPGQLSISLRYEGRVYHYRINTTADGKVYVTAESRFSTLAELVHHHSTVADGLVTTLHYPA
Assay: fluorescence polarisation; Rhodamine B-labelled peptide in solution with SH2 domain; Beacon 2000; as previously described [40]
Conditions: both partners purified
Non-standard residues stand in square brackets, D forms with d. No end group written: not given here. pY = N[C@@H](Cc1ccc(OP(=O)(O)O)cc1)C(=O)O
The answer is to be given in µM; state only the numeric part.

Some binders with known Kd results, for comparison:
[[record]]
binder = "SPGE[pY]VNIEFG (also: Rhodamine B label, site not given here, IRS-1 around Y896; source: synthetic peptide (FMOC chemistry), purified by LC/MS) [IRS-1 (Y896) phosphopeptide SPGEpYVNIEFG, Rhodamine B-labelled]"
value_kind = "Kd"
numeric_value = 3.66

[[record]]
binder = "STDE[pY]LDLSAP (also: Rhodamine B label, site not given here, FGFR3 around Y760; source: synthetic peptide (FMOC chemistry), purified by LC/MS) [FGFR3 (Y760) phosphopeptide STDEpYLDLSAP, Rhodamine B-labelled]"
value_kind = "Kd"
numeric_value = 27

[[record]]
binder = "KEEG[pY]ELPYNP (not fully specified (N-terminus); also: Rhodamine B label, site not given here, p62DOK1 around Y398; source: synthetic peptide (FMOC chemistry), purified by LC/MS) [p62DOK1 (Y398) phosphopeptide KEEGpYELPYNP, Rhodamine B-labelled]"
value_kind = "Kd"
numeric_value = 3.47


Field: next binder
**Query** # get_value(readout='Kd', item= AEDV[pY]DVPPPA (not fully specified (N-terminus); also: Rhodamine B label, site not given here, p130Cas (BCAR1) around Y362; source: synthetic peptide (FMOC chemistry), purified by LC/MS) [p130Cas (Y362) phosphopeptide AEDVpYDVPPPA, Rhodamine B-labelled] )
**Result** 14
